These data points were gathered from paper PMC8342319.

- details: human
Catalogue of in vivo MRT_(hr)_Human values
reported_property: in vivo MRT_(hr)_Human (h)

> print(dat)
                                   compound  unit.info  value.observed
1  CCCCNC(=O)NS(=O)(=O)c1ccc(C)cc1 [Tolbutamide]          h           9.524
2            CCC1(c2ccccc2)C(=O)NC(=O)NC1=O          h         150.000
3                     CC(C)c1cccc(C(C)C)c1O          h           2.176
4  CC(C)n1c(/C=C/C(O)CC(O)CC(=O)O)c(-c2ccc(F)cc2)c2ccccc21 (stereo not shown)          h           0.438

---

- Tested on: plasma protein
- measurement_description: Measurement of PPB by equilibrium dialysis in pooled human plasma (free fraction)
- details: human plasma free fraction; footnote b: fu is our experimental data
Decision: fp_Human compared against 0.1; not below it gives Met, below it gives Not met.

> print(dat)
                                    compound  classification
 1  C[C@H]1NCc2cc(-c3ccc4c(=O)c(C(=O)O)cn(C5CC5)c4c3OC(F)F)ccc21 [Garenoxacin]             Met
 2  CN(C)CCCC1(c2ccc(F)cc2)OCc2cc(C#N)ccc21 (stereo not drawn) [Citalopram]             Met
 3  COc1ccc2c(c1)c(CC(=O)O)c(C)n2C(=O)c1ccc(Cl)cc1 [Indomethacin]         Not met
 4  Cc1cc(O)c(C(=O)N[C@@H](C(=O)N[C@@H]2C(=O)N3C(C(=O)O)=C(CSc4nnnn4C)CS[C@H]23)c2ccc(O)cc2)cn1 [Cefpiramide]         Not met
 5          NCC1(CC(=O)O)CCCCC1 [Gabapentin]             Met
 6  CN(C)CCc1c[nH]c2ccc(CS(=O)(=O)N3CCCC3)cc12 [Almotriptan]             Met
 7  O=C(O[C@@H]1C[C@@H]2C[C@H]3C[C@H](C1)N2CC3=O)c1c[nH]c2ccccc12 [Dolasetron]             Met
 8  O=C(O)Cc1ccccc1Nc1c(Cl)cccc1Cl [Diclofenac]         Not met
 9  CC(C)N(CCC(C(N)=O)(c1ccccc1)c1ccccn1)C(C)C (stereo not drawn) [Disopyramide]             Met
10  CO/N=C(\C(=O)N[C@@H]1C(=O)N2C(C(=O)O)=C(CSc3nc(C)c(CC(=O)O)s3)CS[C@H]12)c1csc(N)n1 [Cefodizime]         Not met
11  O=C(c1ccccc1)c1ccc2n1CCC2C(=O)O (stereo not drawn) [Ketorolac]         Not met
12  CN(Cc1cnc2nc(N)nc(N)c2n1)c1ccc(C(=O)N[C@@H](CCC(=O)O)C(=O)O)cc1 [Methotrexate]             Met

---

- details: human
Decision: in vivo MRT_(hr)_Human compared against 10 h; not below it gives Satisfied, below it gives Not satisfied.

molecule	classification
CC(=O)NC[C@H]1CN(c2ccc(N3CCOCC3)c(F)c2)C(=O)O1	Not satisfied
CC(=O)O[C@H]1C[C@@H]2CC[C@@H]3[C@H](CC[C@@]4(C)[C@H]3C[C@H]([N+]3(C)CCCCC3)[C@@H]4OC(C)=O)[C@@]2(C)C[C@@H]1[N+]1(C)CCCCC1	Not satisfied
Cc1cccc(C)c1OCC(C)N (centres unmarked)	Satisfied
O=P1(N(CCCl)CCCl)NCCCO1 (centres unmarked) [Cyclophosphamide]	Satisfied
CC[C@H](C)C[C@H](C)CCCCCCCCC(=O)N[C@H]1C[C@@H](O)[C@@H](NCCN)NC(=O)[C@@H]2[C@@H](O)CCN2C(=O)[C@H]([C@H](O)CCN)NC(=O)[C@H]([C@H](O)[C@@H](O)c2ccc(O)cc2)NC(=O)[C@@H]2C[C@@H](O)CN2C(=O)[C@H]([C@@H](C)O)NC1=O	Satisfied
